Molecular target: T1, Human ADAMTS13 (human, UniProt Q76LX8 75-685, limits assumed)
T1 sequence (looked up): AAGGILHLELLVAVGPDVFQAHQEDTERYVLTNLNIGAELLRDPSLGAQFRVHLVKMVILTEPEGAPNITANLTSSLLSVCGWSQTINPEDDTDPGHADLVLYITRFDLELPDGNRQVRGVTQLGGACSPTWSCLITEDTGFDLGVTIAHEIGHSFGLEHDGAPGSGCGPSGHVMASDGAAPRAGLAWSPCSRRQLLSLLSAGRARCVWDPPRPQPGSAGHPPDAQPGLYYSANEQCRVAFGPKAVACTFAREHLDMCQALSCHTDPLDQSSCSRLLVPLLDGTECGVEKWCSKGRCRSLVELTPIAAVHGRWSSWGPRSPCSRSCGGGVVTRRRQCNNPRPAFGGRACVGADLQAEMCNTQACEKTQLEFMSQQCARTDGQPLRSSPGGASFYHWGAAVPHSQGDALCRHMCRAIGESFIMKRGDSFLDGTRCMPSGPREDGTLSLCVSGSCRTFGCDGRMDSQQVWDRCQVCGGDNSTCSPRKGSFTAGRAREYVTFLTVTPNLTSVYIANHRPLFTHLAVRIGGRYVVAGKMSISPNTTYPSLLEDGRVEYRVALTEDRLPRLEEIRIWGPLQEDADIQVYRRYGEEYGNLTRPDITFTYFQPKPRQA
Assay: celTRF and Octet QK cross-reactivity

BINDER	binding result
12F4.1H7 (antibody, IgG2, V domains shown, also called Murine 12F4.1H7) VH: EVKLEESGGGLVQPGGSMKLSCTASGFTFSDAWMDWVRQSPEKGLEWVAEIRHKANDHAIFYDESVKGRFTISRDDSKNIVYLQMNSLRPEDTGIYYCTSPFAYWGQGTLVTVSA VL: DIVMTQSQKFMSVTVGDRVSITCKASQSVGTTIVWYQQKPGQSPKLLIYSASNRHTGVPDRFTGSGSGTDFILTINNVQSEDLADYFCQQYTSYPFTFGSGTKLEIKR	no binding
3A12.1D7 (antibody, V domains shown, Murine monoclonal antibody from a hybridoma) VH: EVKFEESGGGLVQPGGSMKLSCAASGFIFSDAWMDWVRQSPEKGLEWVAEIRHKANDYAIFYDESVKGRFTISRDDSKSIVYLQMNNLRPEDTGIYYCTSPFAYWGQGTLVTVSA VL: DIVMTQSQKFMSVTVGDRVSITCKASQSVGTTIVWYQQKPGQSPKLLIYSASNRHTGVPDRFTGSGSGTDFILTISNVQSEDLADYFCQQYSSYPFTFGSGTKLEIKR	no binding
